# credit: the supplement of paper PMC10646978

test system: RAW-Dual (murine macrophage reporter line); assay: IRF reporter (Lucia luciferase) activity fold change vs agonist alone; higher = enhanced IRF activity; details: modulator concentration 10 µM; agonist: LPS 0.1 ug/mL
OBSERVATION_TYPE: IRF reporter
Lab note: record just the number, no unit beside it.

Cc1cc(C)n(CCCN2C(=O)c3cccc4cccc(c34)C2=O)n1 : 1.09
COc1ccc(S(=O)(=O)NC(C)C)c2ccccc12 : 1.01
CC1=C(C(=O)OCC(F)(F)C(F)(F)F)C(c2ccccc2)NC(=O)N1 (stereo not drawn) : 1.34
Cc1cccc(NC(=O)CSc2nc(N3CCCCC3)nc3ccccc23)c1 : 1.22
COc1cccc(C=NNc2nnc(C)c(=O)[nH]2)c1OC : 1.09
COc1cc(C(C)=O)ccc1OCCCN1CCC(c2noc3cc(F)ccc23)CC1 : 1.19
COc1ccccc1OCCNCC(O)COc1cccc2[nH]c3ccccc3c12 (stereo not drawn) : 1.53

With those in mind, consider the next compound.
Ask: Reported IRF reporter, compound "O=C(NCc1ccco1)C(=Cc1ccc(-c2ccccc2Cl)o1)NC(=O)c1ccccc1" : ____
Result: 0.859

---

system: RAW-Dual (murine macrophage reporter line); test: NF-kB reporter (SEAP) activity fold change vs agonist alone; higher = enhanced NF-kB activity; settings: modulator concentration 10 µM; agonist: CpG ODN 1826 0.5 ug/mL
Note that class boundaries on NF-kB reporter are low group: < 0.8; middle group: ≥ 0.8 and < 0.9; high group: ≥ 0.9

Example entries and their recorded answers appear below.
CCCC(C(=O)OCCN(CC)CC)(c1ccccc1)c1ccccc1.Cl : middle group
Nc1cccc(O)c1 : high group
CCCOc1ccc(C(=O)OCCN(CC)CC)cc1N.Cl : middle group
Cc1ccc2sc(NC(=O)c3cccc(N4C(=O)CCC4=O)c3)nc2c1C : high group
COC(=O)C1=C(C)NC(C)=C(C(=O)O[C@@H]2CCCN(Cc3ccccc3)C2)[C@@H]1c1cccc([N+](=O)[O-])c1.Cl : low group

Ask: Please let me know in which category the item "CC(=NN1CCN(Cc2cccc3ccccc23)CC1)c1ccc(O)cc1" belongs.
Result: middle group

Ask: Please let me know in which category the item "CNCc1cc(-c2ccccc2F)n(S(=O)(=O)c2cccnc2)c1.O=C(O)/C=C/C(=O)O" belongs.
Result: low group

Ask: Please let me know in which category the item "N#CCCN(C1CCCCC1)S(=O)(=O)c1cccc2nsnc12" belongs.
Result: high group

Ask: Please let me know in which category the item OCCN1CCN(C(c2cccs2)c2ccc3cccnc3c2O)CC1 (stereo not given) belongs.
Result: high group

Ask: Please let me know in which category the item "CCOc1ccccc1OCCCCOc1cccc(Cl)c1" belongs.
Result: high group

Ask: Please let me know in which category the item "CC(/C=C1\SC(=S)N(CC(=O)O)C1=O)=C\c1ccccc1" belongs.
Result: low group

Ask: Please let me know in which category the item CN(C)CCC(c1ccccc1)c1ccccn1.O=C(O)/C=C\C(=O)O (stereo not given) belongs.
Result: low group

Ask: Please let me know in which category the item "O=C(NCCn1nc(-c2ccccn2)c2c1CCCC2)c1c(F)cccc1Cl" belongs.
Result: high group

Ask: Please let me know in which category the item "Cc1ccc(Cn2c(N)nc3ccccc32)cc1" belongs.
Result: low group

Ask: Please let me know in which category the item "CCCCCCCCCCCCCCCCOc1nc2ccc(C)cc2c(=O)o1" belongs.
Result: high group

Ask: Please let me know in which category the item "NS(=O)(=O)c1ccc(F)cc1" belongs.
Result: high group

Ask: Please let me know in which category the item COc1ccccc1N1CCN(CC(O)COc2cccc3ccccc23)CC1.Cl.Cl (stereo not given) belongs.
Result: low group

Ask: Please let me know in which category the item "COc1ccc2cc(CCC(C)=O)ccc2c1" belongs.
Result: high group

---

IRF reporter listing for selected compounds.
test system: RAW-Dual (murine macrophage reporter line); test: IRF reporter (Lucia luciferase) activity fold change vs agonist alone; higher = enhanced IRF activity; conditions: modulator concentration 10 µM; agonist: 3'3'-cGAMP 10 ug/mL
Lab note: record just the number, no unit beside it.

Worked cases, IRF reporter given:
C=CCn1c(SCC(=O)NCCN2CCOCC2)nc2sc3c(c2c1=O)CCC3 : 1.02
CC(C)(C)NCC(O)COc1cccc2c1CC(O)C(O)C2 (stereo not given) : 0.919
Cc1ccsc1C(=CCCN1CCC[C@@H](C(=O)O)C1)c1sccc1C : 0.857
CCOc1ccc(CN(CCc2ccc3c(c2)OCO3)Cc2cccc3ccccc23)cc1 : 0.619

With those in mind, consider the next compound.
Ask: Reported IRF reporter, compound "Cc1c(N=Cc2cc([N+](=O)[O-])ccc2O)c(=O)n(-c2ccccc2)n1C" : ____
Result: 0.917

---

test system: RAW-Dual (murine macrophage reporter line); test: IRF reporter (Lucia luciferase) activity fold change vs agonist alone; higher = enhanced IRF activity; details: modulator concentration 10 µM; agonist: MPLA […]
IRF reporter listing for selected molecules.
Lab note: record just the number, no unit beside it.

O=C(Cn1c(=O)oc2ccccc21)N1Cc2cncnc2C1 : 0.991
O=C(NN=Cc1c(O)ccc2ccccc12)c1ccccc1I : 1.55
CCC1(O)C(=O)OCc2c1cc1n(c2=O)Cc2cc3cc(O)ccc3nc2-1 (stereo unspecified) : 1.89

Ask: Reported IRF reporter, molecule CC(C(=O)O)c1ccc(C(=O)c2cccs2)cc1 (stereo unspecified) : ____
Result: 1.23

Ask: Reported IRF reporter, molecule "CCOC(C#CCN(CC)CC)(c1ccccc1)c1ccccc1.Cl" : ____
Result: 1.62

Ask: Reported IRF reporter, molecule "C#Cc1cccc(Nc2ncnc3cc(OC)c(OCCCCCCC(=O)NO)cc23)c1" : ____
Result: 0.581

Ask: Reported IRF reporter, molecule "CCc1ccc(NC(=O)CSc2nc3c([nH]c4ccccc43)c(=O)n2C)cc1" : ____
Result: 1.07

Ask: Reported IRF reporter, molecule "Cn1cnc([N+](=O)[O-])c1Sc1ncnc2nc[nH]c12" : ____
Result: 0.986

Ask: Reported IRF reporter, molecule "CSc1nc2cc(Oc3cccc(Cl)c3Cl)c(Cl)cc2[nH]1" : ____
Result: 1.34

Ask: Reported IRF reporter, molecule COC(=O)CNC(c1ccccc1)c1cc(Br)ccc1NC(=O)c1ccccc1Br (stereo unspecified) : ____
Result: 1.52

Ask: Reported IRF reporter, molecule "COC(=O)C=C1SC(Nc2ccc(Cl)c(Cl)c2)=NC1=O" : ____
Result: 0.966

---

tested on: RAW-Dual (murine macrophage reporter line); assay: IRF reporter (Lucia luciferase) activity fold change vs agonist alone; higher = enhanced IRF activity; conditions: modulator concentration 10 µM; agonist: 3'3'-cGAMP 10 ug/mL
Lab note: anything with IRF reporter at or over 1 counts as True; the rest go in False.

Cn1nc(-c2ccc(F)cc2)cc1C(=O)NCC1(CO)CC1 : True
CC[C@@]1(O)C(=O)OCc2c1cc1n(c2=O)Cc2cc3c(CN(C)C)c(O)ccc3nc2-1 : True
COc1ccc(C2Oc3cc(OC)cc(OC)c3CC2O)cc1 (stereo not given) : False

Please examine the following record next.
Ask: Has "C=C1c2cccc(O)c2C(=O)C2=C(O)[C@]3(O)C(=O)C(C(N)=O)=C(O)[C@@H](N(C)C)[C@@H]3[C@@H](O)[C@H]12.Cl" a recorded IRF reporter greater than or equal to 1?
Result: False

---

tested on: RAW-Dual (murine macrophage reporter line); test: IRF reporter (Lucia luciferase) activity fold change vs agonist alone; higher = enhanced IRF activity; details: modulator concentration 10 µM; agonist: 3'3'-cGAMP 10 ug/mL
Lab note: anything with IRF reporter at or over 0.8 counts as t; the rest go in f.

Ask: Has "Fc1ccc(CN2CCc3c([nH]c4ccccc34)C2)cc1" a recorded IRF reporter greater than or equal to 0.8?
Result: f

Ask: Has "CC(C=CC1=C(C)CCCC1(C)C)=CC=CC(C)=CC(=O)O" a recorded IRF reporter greater than or equal to 0.8?
Result: f

---

tested on: RAW-Dual (murine macrophage reporter line); experiment: IRF reporter (Lucia luciferase) activity fold change vs agonist alone; higher = enhanced IRF activity; details: modulator concentration 10 µM; agonist: 3'3'-cGAMP 10 ug/mL
Lab note: anything with IRF reporter at or over 0.7 counts as t; the rest go in f.

Example entries and their recorded answers appear below.
CN1CC(O)C2=C/C(=N/NC(N)=O)C(=O)C=C21 (configuration not stated) : t
CCN(CC)CCN1C(=O)C(O)=C(C(=O)c2ccc(Br)cc2)C1c1ccccc1F (configuration not stated) : t
CC(C)c1cc(C(=O)N2Cc3ccc(CN4CCN(C)CC4)cc3C2)c(O)cc1O : f
N=C(N)Nc1ccc(Cl)cc1 : t
COC(C(=O)NNC(=O)c1ccccc1Cl)c1ccccc1 (configuration not stated) : f
COc1ccc2[nH]c(S(=O)Cc3ncc(C)c(OC)c3C)nc2c1 (configuration not stated) : t
Cc1cc(OCC(=O)Nc2ccc(Cl)c(C(F)(F)F)c2)ccc1Cl : t
CCn1cc(C(=O)NN)c(=O)c2cc(F)c(N3CCCCCC3)cc21 : t
OCC1OC(Oc2ccc(O)cc2)C(O)C(O)C1O (configuration not stated) : t

Please examine the following record next.
Ask: Has "C[C@@H]1COC(Nc2ccc3ncnc(Nc4ccc(OCc5nccs5)c(Cl)c4)c3c2)=N1" a recorded IRF reporter greater than or equal to 0.7?
Result: f
